- Assay System: Glutathione S-transferase omega-1 (Homo sapiens)
- Sequence (P78417 whole entry): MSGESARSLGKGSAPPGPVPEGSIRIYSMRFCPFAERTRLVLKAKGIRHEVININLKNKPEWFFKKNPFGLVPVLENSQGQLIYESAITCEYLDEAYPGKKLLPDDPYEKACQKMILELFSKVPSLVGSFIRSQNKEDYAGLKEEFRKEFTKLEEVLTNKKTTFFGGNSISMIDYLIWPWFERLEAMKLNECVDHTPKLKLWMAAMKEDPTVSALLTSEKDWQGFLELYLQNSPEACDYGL
- Protocol: Inhibition of GSTO1-1 (unknown origin) by enzymatic assay
pIC50: −log10 of the molar value.
Parameter: pIC50

# input compound: "CCN(CC)C(=O)SSC(=O)N(CC)CC" ; wanted: its pIC50
# output > 6.40

The origin of these recorded values is ChEMBL document CHEMBL4196096.
